Hey, just so you know, these numbers are from BigSolDB 2.1.

test context: in DMF, 308.15 K

- structure as smiles: "Cc1[nH]nc2cc([N+](=O)[O-])ccc12"
  solubility (mole fraction): 0.259

---

test context: in acetone, 298.15 K

- structure as smiles: "Cc1[nH]nc2cc([N+](=O)[O-])ccc12"
  solubility (mole fraction): 0.0433

---

test context: in acetone, 308.15 K
experimental endpoint: solubility (mole fraction)

- structure as smiles: "Cc1[nH]nc2cc([N+](=O)[O-])ccc12"
  experimental endpoint: "solubility (mole fraction)"
  recorded number: 0.0538

---

test context: in ethanol, 328.15 K

- structure as smiles: "Cc1[nH]nc2cc([N+](=O)[O-])ccc12"
  solubility (mole fraction): 0.0227

---

test context: in n-propanol, 278.15 K
experimental endpoint: solubility (mole fraction)

- structure as smiles: "Cc1[nH]nc2cc([N+](=O)[O-])ccc12"
  recorded number: 0.0051

---

test context: in ethanol, 313.15 K

- structure as smiles: "Cc1[nH]nc2cc([N+](=O)[O-])ccc12"
  solubility (mole fraction): 0.014

---

test context: in acetonitrile, 303.15 K
experimental endpoint: solubility (mole fraction)

- structure as smiles: "Cc1[nH]nc2cc([N+](=O)[O-])ccc12"
  recorded number: 0.0174

---

test context: in DMF, 278.15 K

- structure as smiles: "Cc1[nH]nc2cc([N+](=O)[O-])ccc12"
  solubility (mole fraction): 0.149

---

test context: in THF, 283.15 K

- structure as smiles: "Cc1[nH]nc2cc([N+](=O)[O-])ccc12"
  solubility (mole fraction): 0.0615

---

test context: in n-propanol, 323.15 K
experimental endpoint: solubility (mole fraction)

- structure as smiles: "Cc1[nH]nc2cc([N+](=O)[O-])ccc12"
  experimental endpoint: "solubility (mole fraction)"
  recorded number: 0.0176

---

test context: in DMF, 323.15 K

- structure as smiles: "Cc1[nH]nc2cc([N+](=O)[O-])ccc12"
  solubility (mole fraction): 0.337

---

test context: in water, 318.15 K
experimental endpoint: solubility (mole fraction)

- structure as smiles: "Cc1[nH]nc2cc([N+](=O)[O-])ccc12"
  recorded number: 0.000147

---

test context: in ethanol, 298.15 K
experimental endpoint: solubility (mole fraction)

- structure as smiles: "Cc1[nH]nc2cc([N+](=O)[O-])ccc12"
  recorded number: 0.0083

---

test context: in ethanol, 293.15 K

- structure as smiles: "Cc1[nH]nc2cc([N+](=O)[O-])ccc12"
  solubility (mole fraction): 0.007

---

test context: in n-propanol, 328.15 K

- structure as smiles: "Cc1[nH]nc2cc([N+](=O)[O-])ccc12"
  solubility (mole fraction): 0.0204

---

test context: in acetone, 288.15 K

- structure as smiles: "Cc1[nH]nc2cc([N+](=O)[O-])ccc12"
  solubility (mole fraction): 0.0336

---

test context: in THF, 303.15 K

- structure as smiles: "Cc1[nH]nc2cc([N+](=O)[O-])ccc12"
  solubility (mole fraction): 0.0845

---

test context: in acetone, 283.15 K
experimental endpoint: solubility (mole fraction)

- structure as smiles: "Cc1[nH]nc2cc([N+](=O)[O-])ccc12"
  recorded number: 0.0295
